// values below are reported IC50
# Tested on: BV-2
# PROCEDURE SUMMARY: Inhibition of LPS-induced NO release in mouse BV-2 cells incubated for 24 hrs by Griess assay
# Format: functional, cell-based
# ASSAY SETUP: BV-2, 24 h
Please state the figure in µM; there is no need to write the unit.

CN(C)c1cccc(N2C(=O)C(c3ccccc3)=C(c3ccccc3)C2=O)c1; 12.7
CN(C)c1ccccc1N1C(=O)C(c2ccccc2)=C(c2ccccc2)C1=O; 13.3

Tested on BV-2: CN(C)c1ccc(N2C(=O)C(c3ccccc3)=C(c3ccccc3)C2=O)cc1 . Observed IC50: 7.1

###

# PROCEDURE SUMMARY: Cytotoxicity against LPS-induced mouse BV-2 cells assessed as cell viability at 20 uM incubated for 24 hrs by MTT assay relative to control
# Assay type: toxicity, cell-based
# ASSAY SETUP: LPS-induced BV-2 cells, read-out: Activity
// values below are reported viability at 24 h, 20 µM
Please state the figure in %; there is no need to write the unit.

As a guide, the following entries are already answered.
O=C1CCC(N2C(=O)c3ccccc3C2=O)C(=O)N1 (configuration not stated) [THALIDOMIDE]; 93.5
CC(C)(C)c1ccc(N2C(=O)C(c3ccccc3)=C(c3ccccc3)C2=O)cc1; 100
Nc1ccc(N2C(=O)C(c3ccccc3)=C(c3ccccc3)C2=O)cc1; 90.2
O=C1C(c2ccccc2)=C(c2ccccc2)C(=O)N1c1ccc(C(F)(F)F)cc1; 99.4
CN(C)c1cccc(N2C(=O)C(c3ccccc3)=C(c3ccccc3)C2=O)c1; 90.2
O=C1CCC(N2C(=O)C(c3ccccc3)=C(c3ccccc3)C2=O)C(=O)N1 (configuration not stated); 98.5

viability at 24 h, 20 µM measured on O=C1C(c2ccccc2)=C(c2ccccc2)C(=O)N1c1ccccc1 = 93.3

Reference source for all entries: ChEMBL document CHEMBL5365411
